System: Escherichia coli TOP10
assay name: shrunken log2 fold change of peptide-encoding DNA abundance (4.5 h post-induction vs induction); higher = less antimicrobial activity (less host growth inhibition)
protocol conditions: time post-induction: 4.5 h; library: site-saturation at positions 5, 18, 19, 20
Classify by shrunken log2 fold change. Ranges: lower level: < -0.05; middle level: ≥ -0.05 and < 0.1; upper level: ≥ 0.1

Consider the worked cases shown below.
INSERT INTO measurements (input_sequence, target_entity, label_class) VALUES
  ('RRIRWRPPRLPRPRPRPVFNPRP', 'Escherichia coli TOP10', 'lower level'),
  ('RRIRDRPPRLPRPRPRPSNMPRP', 'Escherichia coli TOP10', 'lower level'),
  ('RRIRHRPPRLPRPRPRPIIYPRP', 'Escherichia coli TOP10', 'lower level'),
  ('RRIRSRPPRLPRPRPRPEGPPRP', 'Escherichia coli TOP10', 'upper level'),
  ('RRIRSRPPRLPRPRPRPEGGPRP', 'Escherichia coli TOP10', 'upper level');

Continue with the sequence presented below.
Task: Please indicate the class for RRIRSRPPRLPRPRPRPMPWPRP based on its shrunken log2 fold change.
Result: middle level

----------
Test system: Escherichia coli TOP10
assay name: shrunken log2 fold change of peptide-encoding DNA abundance (4.5 h post-induction vs induction); higher = less antimicrobial activity (less host growth inhibition)
protocol conditions: time post-induction: 4.5 h; library: site-saturation at positions 5, 18, 19, 20
readout kind: shrunken log2 fold change

Guide cases for shrunken log2 fold change, answers given:
INSERT INTO results (input_sequence, readout_kind, measured_result) VALUES
  ('RRIRPRPPRLPRPRPRPTWFPRP', 'shrunken log2 fold change', 0.0698),
  ('RRIRCRPPRLPRPRPRPNELPRP', 'shrunken log2 fold change', -0.171),
  ('RRIRLRPPRLPRPRPRPYEDPRP', 'shrunken log2 fold change', -0.125),
  ('RRIRARPPRLPRPRPRPNMNPRP', 'shrunken log2 fold change', -0.212),
  ('RRIRFRPPRLPRPRPRPRRAPRP', 'shrunken log2 fold change', 0.678);

Task: Consider the sequence RRIRHRPPRLPRPRPRPIVKPRP and give its measured shrunken log2 fold change.
Result: -0.19

Task: Consider the sequence RRIRLRPPRLPRPRPRPWYRPRP and give its measured shrunken log2 fold change.
Result: -0.3

Task: Consider the sequence RRIRFRPPRLPRPRPRPDFLPRP and give its measured shrunken log2 fold change.
Result: -0.453

----------
Test system: Escherichia coli TOP10;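 also: peptides expressed intracellularly from a pBAD plasmid library in pooled LB shake-flask culture, induced with 0.3% L-arabinose, DNA abundance read by NGS, three biological replicates, DESeq2 with apeglm shrinkage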
assay name: shrunken log2 fold change of peptide-encoding DNA abundance (4.5 h post-induction vs induction); higher = less antimicrobial activity (less host growth inhibition)
protocol conditions: time post-induction: 4.5 h; library: site-saturation at positions 5, 18, 19, 20
Classify by shrunken log2 fold change. Ranges: band 1: < -0.2; band 2: ≥ -0.2 and < 0.1; band 3: ≥ 0.1

INSERT INTO results (input_sequence, label_class) VALUES
  ('RRIRVRPPRLPRPRPRPNIWPRP', 'band 2');

Task: Please indicate the class for RRIRARPPRLPRPRPRPYRIPRP based on its shrunken log2 fold change.
Result: band 3

Task: Please indicate the class for RRIRCRPPRLPRPRPRPNDFPRP based on its shrunken log2 fold change.
Result: band 1

Task: Please indicate the class for RRIRPRPPRLPRPRPRPKFNPRP based on its shrunken log2 fold change.
Result: band 1

Task: Please indicate the class for RRIRHRPPRLPRPRPRPVSQPRP based on its shrunken log2 fold change.
Result: band 3

Task: Please indicate the class for RRIRYRPPRLPRPRPRPDKDPRP based on its shrunken log2 fold change.
Result: band 2

Task: Please indicate the class for RRIRARPPRLPRPRPRPENNPRP based on its shrunken log2 fold change.
Result: band 3

Task: Please indicate the class for RRIRFRPPRLPRPRPRPKPKPRP based on its shrunken log2 fold change.
Result: band 3

Task: Please indicate the class for RRIRTRPPRLPRPRPRPCEKPRP based on its shrunken log2 fold change.
Result: band 2

Task: Please indicate the class for RRIRHRPPRLPRPRPRPKWCPRP based on its shrunken log2 fold change.
Result: band 2

Task: Please indicate the class for RRIRRRPPRLPRPRPRPICMPRP based on its shrunken log2 fold change.
Result: band 3

Task: Please indicate the class for RRIRCRPPRLPRPRPRPHRCPRP based on its shrunken log2 fold change.
Result: band 2

Task: Please indicate the class for RRIRKRPPRLPRPRPRPWNMPRP based on its shrunken log2 fold change.
Result: band 2

Task: Please indicate the class for RRIRKRPPRLPRPRPRPHRIPRP based on its shrunken log2 fold change.
Result: band 2

Task: Please indicate the class for RRIRQRPPRLPRPRPRPFMWPRP based on its shrunken log2 fold change.
Result: band 1

Task: Please indicate the class for RRIRVRPPRLPRPRPRPIITPRP based on its shrunken log2 fold change.
Result: band 1

Task: Please indicate the class for RRIRARPPRLPRPRPRPEVGPRP based on its shrunken log2 fold change.
Result: band 3

Task: Please indicate the class for RRIRFRPPRLPRPRPRPRLNPRP based on its shrunken log2 fold change.
Result: band 1

Task: Please indicate the class for RRIRKRPPRLPRPRPRPQVYPRP based on its shrunken log2 fold change.
Result: band 2
